Measured on: BTK (Homo sapiens)
Construct: The GM01501.3 cell line endogenously expresses BTK with a HiBiT fusion tag via CRISPR knock-in at its C-terminal region; endogenous in cells; host or cells: GM01501.3 (GM01501 cells engineered by CRISPR knock-in of HiBiT at the BTK locus)
Test method notes: BTK degradation assay using the HiBiT Method (Nano-Glo HiBiT Lytic Assay, GM01501.3 cells)
Assay type: cell-based
Details: HiBiT Degradation on GM01501.3 BTK @ 6 hours
Readout type: DC50

Use these answered entries as a reference point.
COc1cc(CN2CCC(c3ccc(C4CCC(=O)NC4=O)cc3)CC2)ccc1-c1cc2c(-c3ccc(CNC(=O)c4noc(C(C)(C)C)n4)c(C)c3)ncnn2c1 (stereo not shown)
< 0.1 µM
CC1c2cc(OC3CCC(=O)NC3=O)ccc2CCN1Cc1ccc(-c2cc3c(-c4ccc(CNC(=O)c5noc(C(C)(C)C)n5)c(F)c4)ncnn3c2)nc1 (stereo not shown)
0.1 to 0.5 µM
Cc1cc(-c2ncnn3cc(-c4ccc(CN5CCC(c6ccc(NC7CCC(=O)NC7=O)cc6)CC5)cc4)cc23)ccc1CNC(=O)c1cnc(C(C)(C)C)cn1 (stereo not shown)
< 0.1 µM

Note: attention shifts to another entry.
Request: Need DC50 of Cc1cc(-c2ncnn3cc(-c4ccc(CN5CCC(c6ccc(NC7CCC(=O)NC7=O)cc6)CC5)cc4)cc23)ccc1CNC(=O)c1ncc(C(C)(C)C)o1 (stereo not shown) , thanks.
Result: < 0.1 µM

---

Measured on: BTK (Homo sapiens, UniProt Q06187)
Construct: The GM01501.3 cell line endogenously expresses BTK with a HiBiT fusion tag via CRISPR knock-in at its C-terminal region; endogenous in cells; host or cells: GM01501.3 (GM01501 cells engineered by CRISPR knock-in of HiBiT at the BTK locus)
Sequence (Q06187 whole entry, the tested form may be a part): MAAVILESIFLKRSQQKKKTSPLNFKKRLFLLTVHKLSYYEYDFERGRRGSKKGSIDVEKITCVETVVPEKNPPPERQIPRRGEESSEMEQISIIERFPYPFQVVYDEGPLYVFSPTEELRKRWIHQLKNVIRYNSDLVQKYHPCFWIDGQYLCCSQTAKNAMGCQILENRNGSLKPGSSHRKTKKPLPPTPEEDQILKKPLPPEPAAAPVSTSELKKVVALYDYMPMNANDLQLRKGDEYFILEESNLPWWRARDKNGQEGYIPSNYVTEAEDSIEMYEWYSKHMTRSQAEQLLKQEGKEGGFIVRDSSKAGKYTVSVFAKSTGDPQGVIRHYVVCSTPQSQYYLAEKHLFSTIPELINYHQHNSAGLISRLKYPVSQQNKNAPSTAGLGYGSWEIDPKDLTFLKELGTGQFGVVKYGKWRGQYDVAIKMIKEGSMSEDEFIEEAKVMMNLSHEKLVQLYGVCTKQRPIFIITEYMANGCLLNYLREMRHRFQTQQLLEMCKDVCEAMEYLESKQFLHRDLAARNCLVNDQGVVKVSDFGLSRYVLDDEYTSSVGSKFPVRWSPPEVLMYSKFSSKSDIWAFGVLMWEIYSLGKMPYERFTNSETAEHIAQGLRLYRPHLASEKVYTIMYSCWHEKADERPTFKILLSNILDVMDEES
Test method notes: BTK degradation assay using the HiBiT Method (Nano-Glo HiBiT Lytic Assay, GM01501.3 cells)
Type: cell-based
Details: HiBiT Degradation on GM01501.3 BTK @ 6 hours
Readout type: DC50

Cn1nc(N2CCC(=O)NC2=O)c2ccc(C3CCN(Cc4ccc(-c5cc6nccc(-c7ccc(CNC(=O)N8CC(OC(C)(C)C)C8)c(F)c7)n6n5)cc4)CC3)cc21
< 0.1 µM
Cc1cc(-c2ncnn3cc(CCN4CCC(c5ccc6c(N7CCC(=O)NC7=O)nn(C)c6c5)CC4)cc23)ccc1CNC(=O)c1cn(C(C)(C)C)nn1
< 0.1 µM
Cc1cc(-c2ncnn3cc(CCN4CCC(c5ccc(NC6CCC(=O)NC6=O)cn5)CC4)cc23)ccc1CNC(=O)c1noc(C(C)(C)C)n1 (stereo not drawn)
< 0.1 µM
Cc1cc(-c2ncnn3cc(N4CCN(C(=O)CC5CCCCN5C(=O)c5ccc(OC6CCC(=O)NC6=O)cc5)CC4)cc23)ccc1CNC(=O)c1noc(C(C)(C)C)n1 (stereo not drawn)
0.1 to 0.5 µM
Cc1cc(-c2ncnn3cc(-c4ccc(CN5CCC(c6ccc(NC7CCC(=O)NC7=O)cc6)CC5)cc4)cc23)ccc1CNC(=O)C12CC(C(C)(C)C)(C1)C2 (stereo not drawn)
< 0.1 µM

Note: attention shifts to another entry.
Request: Please state recorded DC50 (tested on BTK (Homo sapiens, UniProt Q06187)) of CC(C)(C)c1nc(C(=O)NCc2ccc(-c3ncnn4cc(CCC(F)CN5CCC(c6ccc(NC7CCC(=O)NC7=O)cc6)CC5)cc34)cc2F)no1 (stereo not drawn)
Result: < 0.1 µM
